test system: BDF1 mice, P388 leukemia ip, median survival T/C; assay: NCI In Vivo Anticancer Drug Screen. Data for tumor model P388 Leukemia (intraperitoneal) in B6D2F1 (BDF1) mice; conditions: endpoint: median survival time; dose: 400.0 mg/kg/injection; schedule: Q04DX003 (ip); vehicle: Klucel (hydroxypropylcellulose) (HPC); higher = longer survival
Inconclusive results and toxic doses are left out.

MOLECULE	MEASURED TARGET	T/C
C/C=C(/Cl)c1c(C)cc(C)c(CC(=O)O)c1C	BDF1 mice, P388 leukemia ip, median survival T/C	95 % of control
Cn1c(=O)n(C)c2ccccc21	BDF1 mice, P388 leukemia ip, median survival T/C	91 % of control
O=[N+]([O-])c1cccc(Oc2ncccc2[N+](=O)[O-])c1	BDF1 mice, P388 leukemia ip, median survival T/C	115 % of control
CCOC(=O)CNC(=O)C(CSSCC(NC(=O)OCc1ccccc1)C(=O)NCC(=O)OCC)NC(=O)OCc1ccccc1 (centres undefined)	BDF1 mice, P388 leukemia ip, median survival T/C	109 % of control
O=C(/C=C/c1cccc2ccccc12)c1ccc(Cl)cc1	BDF1 mice, P388 leukemia ip, median survival T/C	95 % of control
Cc1ccc([N+](=O)[O-])cc1N=C=O	BDF1 mice, P388 leukemia ip, median survival T/C	91 % of control
O=C(/C=C\c1ccc(O)cc1)c1ccccc1	BDF1 mice, P388 leukemia ip, median survival T/C	104 % of control
O=C(c1ccccc1)C1(Br)CCCCC1	BDF1 mice, P388 leukemia ip, median survival T/C	109 % of control
CCOC(=O)CC(=Nc1ccccc1OC)C(=O)OCC	BDF1 mice, P388 leukemia ip, median survival T/C	95 % of control
c1ccc(CNCCOB(OCCNCc2ccccc2)OCCNCc2ccccc2)cc1	BDF1 mice, P388 leukemia ip, median survival T/C	100 % of control
CCOC(=O)C(C(=O)OCC)C1C=CCC1 (centres undefined)	BDF1 mice, P388 leukemia ip, median survival T/C	100 % of control
COc1ccc(N2CSC(=S)N(c3ccc(OC)cc3)C2)cc1	BDF1 mice, P388 leukemia ip, median survival T/C	104 % of control
COc1ccc(/C=C(C(=O)O)/C(=C/c2ccc(OC)c(OC)c2)C(=O)O)cc1OC	BDF1 mice, P388 leukemia ip, median survival T/C	112 % of control
C/C=C(/C)N(C(C)=O)N(C(C)=O)c1ccc([N+](=O)[O-])cc1[N+](=O)[O-]	BDF1 mice, P388 leukemia ip, median survival T/C	95 % of control
O=C(Cc1ccccc1)OCCc1ccccc1	BDF1 mice, P388 leukemia ip, median survival T/C	100 % of control
C=CCN(CC=C)c1ccccc1	BDF1 mice, P388 leukemia ip, median survival T/C	112 % of control
COC(=O)c1c(O)cc(OC)cc1OC	BDF1 mice, P388 leukemia ip, median survival T/C	95 % of control
COc1ccccc1C(=O)C(O)c1ccccc1OC (centres undefined)	BDF1 mice, P388 leukemia ip, median survival T/C	108 % of control
C[C@]12C=CC(=O)C=C1[C@@H](F)C[C@@H]1[C@@H]2[C@@H](O)C[C@@]2(C)[C@H]1CC[C@]2(O)C(=O)CO	BDF1 mice, P388 leukemia ip, median survival T/C	95 % of control
Cc1cc(C)cc(CCc2cc(C)cc(C)c2)c1	BDF1 mice, P388 leukemia ip, median survival T/C	95 % of control
O=C(c1ccccc1)C1C(c2ccccc2)N1CCl (centres undefined)	BDF1 mice, P388 leukemia ip, median survival T/C	100 % of control
Cc1nn(-c2ccccc2)c(N)c1C#N	BDF1 mice, P388 leukemia ip, median survival T/C	102 % of control
CCOC(=O)C(=O)Cc1sccc1[N+](=O)[O-]	BDF1 mice, P388 leukemia ip, median survival T/C	91 % of control
CC1CC2=CC(=O)C=CC2(C)C2CCC3(C)C(O)CCC3C12 (centres undefined)	BDF1 mice, P388 leukemia ip, median survival T/C	87 % of control
O=[N+]([O-])C(Br)(c1ccccc1)S(=O)(=O)Cc1ccccc1 (centres undefined)	BDF1 mice, P388 leukemia ip, median survival T/C	108 % of control
Nc1ccccc1C(=O)OCCc1ccccc1	BDF1 mice, P388 leukemia ip, median survival T/C	95 % of control
CCOC(=O)C1CCCC23CC(CC12)C(C)(C)C3Br (centres undefined)	BDF1 mice, P388 leukemia ip, median survival T/C	100 % of control
CC(O)C(O)C(O)C(O)/C=N/O (centres undefined)	BDF1 mice, P388 leukemia ip, median survival T/C	88 % of control
Cc1cc(N(CCCl)CCCl)ccc1C=Nc1cccnc1	BDF1 mice, P388 leukemia ip, median survival T/C	120 % of control
COc1cc2ccc(CC(=O)NCCc3ccc4c(c3)OCO4)cc2cc1OC	BDF1 mice, P388 leukemia ip, median survival T/C	90 % of control
O=C1/C(=C/c2ccccc2)CCCC1/C=C/c1ccccc1 (centres undefined)	BDF1 mice, P388 leukemia ip, median survival T/C	104 % of control
CN(C)c1ccc(C(C[N+](=O)[O-])(c2ccc(N(C)C)cc2)c2ccc(N(C)C)cc2)cc1	BDF1 mice, P388 leukemia ip, median survival T/C	100 % of control
O=C(Nc1ccccc1)Oc1ccc(Cl)cc1	BDF1 mice, P388 leukemia ip, median survival T/C	109 % of control
CCOC(=O)COc1ccc(C=O)cc1	BDF1 mice, P388 leukemia ip, median survival T/C	92 % of control
C[C@]12CC[C@H]3C(=CCc4cc(O)ccc43)[C@@H]1CCC2=O	BDF1 mice, P388 leukemia ip, median survival T/C	95 % of control
CC(=O)c1cnn(-c2ccccc2)c1C	BDF1 mice, P388 leukemia ip, median survival T/C	90 % of control
CCCCCCCCCCCCCCCCCC(N)=O	BDF1 mice, P388 leukemia ip, median survival T/C	100 % of control
Cc1ccc(S(=O)(=O)N2CC3CC2CN3Cc2ccccc2)cc1 (centres undefined)	BDF1 mice, P388 leukemia ip, median survival T/C	95 % of control
Cc1ccc(C2(C(=O)O)CCCCC2)cc1	BDF1 mice, P388 leukemia ip, median survival T/C	100 % of control
CCOC(=O)N1Cc2cc3ccccc3nc2C1CC(=O)O (centres undefined)	BDF1 mice, P388 leukemia ip, median survival T/C	104 % of control
CN(C(=O)N(C)c1ccccc1)c1ccccc1	BDF1 mice, P388 leukemia ip, median survival T/C	87 % of control
Cc1ccc(C(Br)C2=CC(C)(C)c3ccccc3C2=O)cc1 (centres undefined)	BDF1 mice, P388 leukemia ip, median survival T/C	113 % of control
C[C@]12CC[C@@H]3c4ccc(O)cc4CC[C@H]3[C@@H]1CCC(=O)O2	BDF1 mice, P388 leukemia ip, median survival T/C	100 % of control
CCOc1ccccc1NC1=C(OC)C(=O)C(Nc2ccccc2OCC)=C(OC)C1=O	BDF1 mice, P388 leukemia ip, median survival T/C	86 % of control

---

system: BDF1 mice, P388 leukemia ip, median survival T/C; assay: NCI In Vivo Anticancer Drug Screen. Data for tumor model P388 Leukemia (intraperitoneal) in B6D2F1 (BDF1) mice; settings: endpoint: median survival time; dose: 25.0 mg/kg/injection; schedule: Q04DX003 (ip); vehicle: saline
Toxic doses and inconclusive results are not listed. The calls were made as follows: active = survival T/C of 150% or more; inactive = T/C below 125% in these data.
Classes used: t = active, f = inactive

MOLECULE	GROUP
CN(C)Cc1c[nH]c2nccnc12	f
ClCCN(CCCl)CCNc1ccnc2cc(Cl)ccc12	f
O=C(CCN1CCCCC1)c1ccccc1	f
NC(CCl)=NC1CCCCC1	f
CC(C)(C)C([NH-])=O.CC(C)(C)C([NH-])=O.[Cl][Pt+2][Cl]	f
CCc1ccc(C(=O)NN)cc1	f
CCOC(=O)C(Br)C(=O)OCC	f
O=P(N1CCCCCC1)(N1CC1)N1CC1	t
CCN(CC)Cc1c(C)[nH]c2ccc(N(C)C)cc2c1=O	f
COc1cc(N2C(N)=NC(N)=NC2(C)C)cc(OC)c1OC	f
COc1ccc(C[C@H](N)C(=O)NC2C(CO)OC(n3cnc4c(N(C)C)ncnc43)C2O)cc1 (stereo partly drawn)	f
N=C([Se])c1ncn(C2OC(CO)C(O)C2O)c1N (stereo not drawn)	f
CN(C)CCCN1c2ccccc2Sc2ccc(F)cc21	f

---

system: BDF1 mice, P388 leukemia ip, median survival T/C; experiment: NCI In Vivo Anticancer Drug Screen. Data for tumor model P388 Leukemia (intraperitoneal) in B6D2F1 (BDF1) mice; settings: endpoint: median survival time; dose: 200.0 mg/kg/injection; schedule: Q04DX003 (ip); vehicle: saline with Tween-80
Toxic doses and inconclusive results are not listed. Rule for the calls: active = survival T/C of 150% or more; inactive = T/C below 125% in these data.
Classes used: Y = active, N = inactive

MOLECULE	GROUP
C/C=C/C=C/NC(=O)Oc1ccccc1	N
CCCCNC(C)(C)C(=O)c1ccco1	N
Nc1cc(C(=O)Nc2ccc(C3=NCCN3)cc2)ccc1C(=O)Nc1ccc(C2=NCCN2)cc1	N
O=C(O)c1c(I)c(I)c(I)c(I)c1C(=O)c1ccccc1	N
CC(C)(Br)C(=O)c1ccc(Cl)s1	N
c1ccc(-c2cc(-c3ccccc3)[s+]s2)cc1	N
COc1ccc(/C=C/c2ccc3ccccc3n2)c(OC)c1	N
CC(=O)c1ccccc1C	N
[Fe+5].[O-][Cl+3]([O-])([O-])O.[O-]c1ccccc1C=NCCN1CC1.[O-]c1ccccc1C=NCCN1CC1	N
CCOC(=O)C(NC(=O)OCc1ccccc1)(OCc1ccccc1)C(C)C (stereo not given)	N
CC(C)SC(=O)C[Si](C)(C)C	Y
CS(=O)(=O)OCC(=O)NCCNC(=O)COS(C)(=O)=O	Y
CCCCCC(=O)O[C@]1(C(C)=O)CC[C@H]2[C@@H]3CCC4=CC(=O)CC[C@]4(C)[C@H]3CC[C@@]21C	N
CCOC(=O)c1c(N)[nH]c(SSc2[nH]c(N)c(C(=O)OCC)c2C(=O)OCC)c1C(=O)OCC	N
Nc1ccccc1CCc1ccccc1N	N
Cn1c(CC(O)(C(F)(F)Cl)C(F)(F)Cl)cc(=O)n1-c1ccccc1	N
Cc1ncc([N+](=O)[O-])n1CCSSCCn1c([N+](=O)[O-])cnc1C	N
C/C(=C1/c2ccccc2-c2n[nH]c(C)c21)S(=O)(=O)O	N
CCCN(CCC)CCC#N	N
COc1ccc(CCNC(=O)Cc2ccccc2)cc1OC	N
OCC12CCCCC1CC1(CC2)OCCO1 (stereo not given)	N
Cc1ccc(CNc2ccc(F)cc2)cc1	N
FC(F)(F)c1nc2nc(Cl)c(Cl)nc2n1CCCN1CCOCC1	N
Oc1ccc(C=Nc2ccccc2N=Cc2ccc(O)c(O)c2)cc1O	N
CCCCCCCCCCCCCCCCCCNC(=O)Nc1ccc(CC)cc1	N
CC(C)C(=O)c1ccc([N+](=O)[O-])o1	N
CCCNC(=O)Nc1ccc(C(=O)OCC(C)C)cc1	N
COC(=O)C(NC(=O)OCc1ccccc1)C(=O)OC	N
NC(Cc1ccc(O)cc1)C(=O)OCc1ccccc1 (stereo not given)	N
CC(C(O)c1cccs1)C(O)(C(F)(F)F)C(F)(F)F (stereo not given)	N
C=CCC1CCSC1=O (stereo not given)	N
Cc1ccccc1NC(=O)c1ccc([N+](=O)[O-])cc1	N
CCOC(=O)CCC(NC(=O)N(CCCl)CCCl)C(=O)OCC (stereo not given)	Y
CC1=CC=CC(=O)C1(C)C(Cl)Cl (stereo not given)	N
N#CC1C=Cc2ccccc2N1C(=O)Oc1ccccc1 (stereo not given)	N
CCCN1c2ccccc2Sc2ccccc21	N
O=c1[nH]c(=O)n(CC(O)c2ccc(Cl)s2)cc1F (stereo not given)	N
Cc1cc(C)c(C#N)c([S][Sn]([Cl])([Cl])[S]c2nc(C)cc(C)c2C#N)n1	N
OC(CBr)(c1ccccc1)c1ccccc1	N
CCN(CC)c1c(C)nnc2c(-c3ccccc3)nnn12	N
O=C(c1ccccn1)C12CC3CC(CC(C3)C1)C2	N
CCCC(Cc1ccccc1)(C(=O)OCC)C(=O)OCC	N
Cc1ccc(C(C#N)Nc2ccccc2)cc1 (stereo not given)	N
ON=C(Cc1ccccc1)Cc1ccccc1	N
N/C(=N\OS(=O)(=O)c1ccccc1)OC1CCCCC1	N
C[C@]12[C@@H]3CC(=O)C[C@@]1(CC[C@@H]1[C@@H]2CC[C@]2(C)OC(=O)CC[C@@H]12)SS3	N
c1ccc(Sc2c(Sc3ccccc3)c(Sc3ccccc3)c(Sc3ccccc3)c(Sc3ccccc3)c2Sc2ccccc2)cc1	N
CCCCNC(=S)Nc1sc(C)c(C)c1C(=O)OCC	N
CC(Br)C(=O)NCC(=O)O (stereo not given)	N
O=C(NCc1cnccn1)c1ccccc1Cl	N
